Reported NanoBRET Fold Response is given for each of the following compounds.
Biological target: ADRA1B (Homo sapiens)
Construct: purchased Promega (in-house HiBiT-GPCR construct library, NanoBRET)
Sequence (P35368 whole entry): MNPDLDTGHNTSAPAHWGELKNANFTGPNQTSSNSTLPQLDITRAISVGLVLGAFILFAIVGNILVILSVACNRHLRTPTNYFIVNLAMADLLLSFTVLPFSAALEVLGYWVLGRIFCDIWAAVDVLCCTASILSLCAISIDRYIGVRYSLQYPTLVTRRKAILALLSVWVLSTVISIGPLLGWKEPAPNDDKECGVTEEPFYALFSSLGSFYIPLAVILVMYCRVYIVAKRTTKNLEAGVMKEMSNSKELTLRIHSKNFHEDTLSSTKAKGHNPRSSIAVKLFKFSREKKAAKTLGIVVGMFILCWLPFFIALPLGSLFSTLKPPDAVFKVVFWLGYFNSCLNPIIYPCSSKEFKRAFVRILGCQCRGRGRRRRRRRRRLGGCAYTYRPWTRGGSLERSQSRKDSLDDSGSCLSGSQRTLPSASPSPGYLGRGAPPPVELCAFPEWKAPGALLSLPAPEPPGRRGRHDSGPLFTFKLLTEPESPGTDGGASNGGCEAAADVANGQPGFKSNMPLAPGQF
Test: NanoBRET screen HiBiT-ADRA1B in HEK293
Format: binding
Settings: ADRA1B; tracer 0.1μM
reported metric: NanoBRET Fold Response

{"columns": ["compound", "system", "value observed"],
 "data": [
  ["Cc1cc2c(s1)Nc1ccccc1N=C2N1CCN(CCCNC(=O)CCOCCOCCOCCOCCNC(=O)CCc2ccc3n2[B-](F)(F)[N+]2=C(c4ccc[nH]4)C=CC2=C3)CC1", "ADRA1B (Homo sapiens)", 1.26],
  ["CCCn1c(=O)c2[nH]c(-c3ccc(OCC(=O)NCCNC(=O)CCOCCNC(=O)c4ccc(CNC(=O)CCc5ccc6n5[B-](F)(F)[N+]5=C(c7ccc[nH]7)C=CC5=C6)cc4)cc3)nc2n(CCC)c1=O", "ADRA1B (Homo sapiens)", 1.05],
  ["N#CN=C(NCCCOc1cccc(CN2CCCCC2)c1)NCCNC(=O)CCOCCOCCOCCOCCNC(=O)CCc1ccc2n1[B-](F)(F)[N+]1=C(c3ccc[nH]3)C=CC1=C2", "ADRA1B (Homo sapiens)", 1.10],
  ["COc1ccccc1N1CCN(CCCCN2C(=O)c3ccc(CNC(=O)CCOCCOCCOCCOCCNC(=O)CCc4ccc5n4[B-](F)(F)[N+]4=C(c6ccc[nH]6)C=CC4=C5)cc3C2=O)CC1", "ADRA1B (Homo sapiens)", 1.80],
  ["CC(C)N(CC[C@H](c1ccccc1)c1cc(CCNC(=O)CCOCCOCCOCCOCCNC(=O)CCc2ccc3n2[B-](F)(F)[N+]2=C(c4ccc[nH]4)C=CC2=C3)ccc1O)C(C)C", "ADRA1B (Homo sapiens)", 1.16],
  ["O=C(CCc1ccc2n1[B-](F)(F)[N+]1=C(c3ccc[nH]3)C=CC1=C2)NCc1ccc(C(=O)NCCOCCC(=O)N[C@@H]2CC[C@@]3(O)[C@H]4Cc5ccc(O)c6c5[C@@]3(CCN4CC3CC3)[C@H]2O6)cc1 [Naltrexone-3-NB590]", "ADRA1B (Homo sapiens)", 0.53],
  ["O=C(CCc1ccc2n1[B-](F)(F)[N+]1=C(c3ccc[nH]3)C=CC1=C2)NCCOCCOCCNC(=O)OCCOCCN1CCN(C2=Nc3ccccc3Sc3ccccc32)CC1", "ADRA1B (Homo sapiens)", 1.52]
]}
